So I've got a bunch of compounds here, and I need their Plant response rating, Ducksalad values.
test system: ducksalad; experiment: Test B flooded paddy test; format: in vivo, Heteranthera limosa; settings: 1000 g ai/ha, Flood; scale of 0 to 100 where 0 is no effect and 100 is complete control
Numbers only.

What reported Plant response rating, Ducksalad corresponds to O=C1NCC(c2ccc(F)c(F)c2)C1C(=O)Nc1cccnc1C(F)(F)F (racemic) [Compound 98] on ducksalad?
90

What reported Plant response rating, Ducksalad corresponds to COc1cc(C2CNC(=O)C2C(=O)Nc2ccccc2C(F)(F)F)ccc1F (racemic) [Compound 196] on ducksalad?
90

What reported Plant response rating, Ducksalad corresponds to O=C1NCC(c2ccc(Cl)c(C(F)(F)F)c2)C1C(=O)Nc1ccccc1F (racemic) [Compound 267] on ducksalad?
100

What reported Plant response rating, Ducksalad corresponds to O=C1NCC(c2ccc(C(F)(F)F)cc2F)C1C(=O)Nc1ccccc1C(F)(F)F (racemic) [Compound 261] on ducksalad?
90

What reported Plant response rating, Ducksalad corresponds to O=C1NCC(c2ccc3ccccc3c2)C1C(=O)Nc1ccccc1C(F)(F)F (racemic) [Compound 117] on ducksalad?
90

What reported Plant response rating, Ducksalad corresponds to O=C1NCC(c2cccc(S(F)(F)(F)(F)F)c2)C1C(=O)Nc1ccccc1F (racemic) [Compound 213] on ducksalad?
85

I'm hoping you can list Plant response rating, Ducksalad for every compound here, please.
1. O=C1NCC(c2ccc3ccccc3c2)C1C(=O)Nc1ccccc1F (racemic) [Compound 115]
2. O=C1NCC(c2cccc(S(F)(F)(F)(F)F)c2)C1C(=O)Nc1cccc(F)c1F (stereo not drawn) [Compound 214]
3. COc1ccc(C2CNC(=O)C2C(=O)Nc2ccccc2F)cc1C(F)(F)F (racemic) [Compound 209]
4. O=C1NCC(c2ccc3ccccc3c2)C1C(=O)Nc1cccc(F)c1F (racemic) [Compound 116]
5. O=C1NCC(c2ccc(F)c(F)c2)C1C(=O)Nc1cccc(C(F)(F)F)n1 (racemic) [Compound 245]
6. COc1cc(C2CNC(=O)C2C(=O)Nc2cccc(F)c2F)ccc1F (racemic) [Compound 195]

90
90
95
80
90
100

* * *

test system: barnyardgrass; assay: Test C flooded paddy test; assay type: in vivo, Echinochloa crus-galli; settings: Flood, 125 g ai/ha; scale of 0 to 100 where 0 is no effect and 100 is complete control; 13 to 15 days
So I've got a bunch of compounds here, and I need their Plant response rating, Barnyardgrass values.
Give bare numbers.

I'm hoping you can list Plant response rating, Barnyardgrass for every compound here, please.
1. O=C1NCC(c2cccc(OC(F)F)c2)C1C(=O)Nc1cccc(F)c1F (stereo not shown)
2. CS(=O)(=O)c1ccccc1NC(=O)C1C(=O)NCC1c1ccc(F)c(F)c1 (racemic)
3. O=C1NCCC1C(=O)N(c1ccc(F)c(F)c1)c1ccccc1F (stereo not shown)
4. O=C1NCC(c2ccc(F)c(F)c2)C1C(=O)Nc1cccc(F)c1F (stereo not shown)
5. CN1CC(c2ccc(F)c(F)c2)C(C(=O)Nc2cccc(F)c2F)C1=O (stereo not shown)
6. O=C1NCC(c2ccc(F)cc2)C1C(=O)Nc1ccc(F)c(F)c1F (racemic)
7. O=C1NCC(c2ccc(Cl)c(F)c2)C1C(=O)Nc1cccc(F)c1F (stereo not shown)

1. 40
2. 0
3. 20
4. 20
5. 60
6. 50
7. 0

* * *

tested on: velvetleaf; test: Test A pre-/postemergence herbicide test; type: in vivo, Abutilon theophrasti; conditions: 125 g ai/ha; visual rating, 0 to 100 scale, 0 no effect, 100 complete control; approximately 10 days; preemergence
OBSERVABLE: Plant response rating, Velvetleaf
Give bare numbers.

Some solved entries appear below for comparison.
Look up Plant response rating, Velvetleaf for this compound: O=C1NCC(c2cccc(C(F)(F)F)c2)C1C(=O)Nc1ccccc1Br (racemic)
0

Look up Plant response rating, Velvetleaf for this compound: COc1cc(C2CNC(=O)C2C(=O)Nc2cccc(F)c2F)ccc1F (racemic)
0

Look up Plant response rating, Velvetleaf for this compound: COc1cc(C2CNC(=O)C2C(=O)Nc2ccccc2F)ccc1F (racemic)
0

Further cases:
Look up Plant response rating, Velvetleaf for this compound: COc1ccc(C2CNC(=O)C2C(=O)Nc2ccccc2C(F)(F)F)cc1F (racemic)
0

* * *

system: giant foxtail; assay: Test A pre-/postemergence herbicide test; type: in vivo, Setaria faberii; details: Preemergence, 125 g ai/ha; 0 to 100 scale where 0 is no effect and 100 is complete control
So I've got a bunch of compounds here, and I need their Plant response rating, Foxtail, Giant values.
Answers are plain numbers.

Look up Plant response rating, Foxtail, Giant for this compound: O=C1NCC(c2cc(F)cc(F)c2)C1C(=O)Nc1ccccc1Cl (racemic) [Compound 280]
90

Look up Plant response rating, Foxtail, Giant for this compound: CN1CC(c2cccc(C(F)(F)F)c2)C(C(=O)Nc2cccc(F)c2F)C1=O (stereo not drawn) [Compound 305]
90

Look up Plant response rating, Foxtail, Giant for this compound: O=C1NCC(c2ccc(Cl)o2)C1C(=O)Nc1ccccc1F (stereo not drawn) [Compound 284]
40

Look up Plant response rating, Foxtail, Giant for this compound: O=C1NCC(c2cccc(C(F)(F)F)c2)C1C(=O)Nc1ccc(F)c(F)c1F (stereo not drawn) [Compound 345]
90

Look up Plant response rating, Foxtail, Giant for this compound: O=C1NCC(c2cnn(CC(F)(F)F)c2)C1C(=O)Nc1ccccc1F (stereo not drawn) [Compound 298]
0

I'm hoping you can list Plant response rating, Foxtail, Giant for every compound here, please.
1. O=C1NCC(c2cccc(Br)c2)C1C(=O)Nc1ccc(F)c(F)c1F (stereo not drawn) [Compound 310]
2. O=C1NCC(c2ccc(C(F)(F)F)cc2F)C1C(=O)Nc1cccc(F)c1F (racemic) [Compound 260]
3. CN1CC(c2ccc(F)cc2)C(C(=O)Nc2ccccc2F)C1=O (stereo not drawn) [Compound 270]
4. O=C1NCC(c2ccc(Cl)c(C(F)(F)F)c2)C1C(=O)Nc1ccccc1F (racemic) [Compound 267]

[90, 80, 80, 80]

* * *

So I've got a bunch of molecules here, and I need their Plant response rating, Wheat values.
test system: wheat; test: Test A pre-/postemergence herbicide test; type: in vivo, Triticum aestivum; conditions: Postemergence, 1000 g ai/ha; 0 to 100 scale (0 no effect, 100 complete control)
Give bare numbers.

I'm hoping you can list Plant response rating, Wheat for every molecule here, please.
1. Cn1ccnc1C1CNC(=O)C1C(=O)Nc1cccc(F)c1F (racemic) [Compound 252]
2. O=C1NCC(c2ccc(F)c(F)c2)C1C(=O)Nc1ccc(F)cc1 (racemic) [Compound 193]
3. CS(=O)(=O)c1ccccc1NC(=O)C1C(=O)NCC1c1ccc(F)c(F)c1 (racemic) [Compound 21]

1. 0
2. 0
3. 30

I'm hoping you can list Plant response rating, Wheat for every molecule here, please.
1. O=C1NCC(c2ccc(Cl)c(Cl)c2)C1C(=O)Nc1ccccc1[N+](=O)[O-] (centres unmarked) [Compound 39]
2. O=C1NCC(c2cccc(-c3ccccc3C(F)(F)F)c2)C1C(=O)Nc1ccccc1C(F)(F)F (centres unmarked) [Compound 237]

1. 40
2. 0

* * *

system: ragweed; assay: Test A pre-/postemergence herbicide test; assay type: in vivo, Ambrosia elatior; conditions: Postemergence, 500 g ai/ha
OBSERVABLE: Ragweed plant response rating (0 to 100 scale, 0 is no effect, 100 is complete control)
Numbers only.

Some solved entries appear below for comparison.
Look up Ragweed plant response rating (0 to 100 scale, 0 is no effect, 100 is complete control) for this molecule: O=C1NCC(c2cccc(S(F)(F)(F)(F)F)c2)C1C(=O)Nc1ccccc1C(F)(F)F (stereo not shown)
10

Look up Ragweed plant response rating (0 to 100 scale, 0 is no effect, 100 is complete control) for this molecule: Cc1cc(C2CNC(=O)C2C(=O)Nc2ccc(F)cc2F)ccc1F (racemic)
0

Look up Ragweed plant response rating (0 to 100 scale, 0 is no effect, 100 is complete control) for this molecule: O=C1NCC(c2cccc(C(F)F)c2)C1C(=O)Nc1ccccc1F (racemic)
20

# ---- query molecule ----
Look up Ragweed plant response rating (0 to 100 scale, 0 is no effect, 100 is complete control) for this molecule: Cc1ccc(C2CNC(=O)C2C(=O)Nc2ccc(F)c(F)c2F)cc1F (racemic)
50

* * *

So I've got a bunch of molecules here, and I need their Crabgrass, Large plant response rating values.
test system: crabgrass, large; assay: Test A pre-/postemergence herbicide test; format: in vivo, Digitaria sanguinalis; details: Preemergence, 125 g ai/ha; visual rating on 0 to 100 scale (0 no effect, 100 complete control)
One number for each entry.

What reported Crabgrass, Large plant response rating corresponds to O=C1NCC(c2ccc(F)c(F)c2)C1C(=O)Nc1ccccc1OC(F)(F)F (stereo not drawn) [Compound 54] on crabgrass, large?
90

I'm hoping you can list Crabgrass, Large plant response rating for every molecule here, please.
1. O=C1NCC(c2ccccc2)C1(Br)C(=O)Nc1ccccc1F (stereo not drawn) [Compound 93]
2. Cc1cccc(C2CN(C(=O)OC(C)(C)C)C(=O)C2C(=O)Nc2ccccc2F)c1 (stereo not drawn) [Compound 37]
3. CC1(C)NC(=O)C(C(=O)Nc2ccccc2F)C1c1ccc(F)c(F)c1 (stereo not drawn) [Compound 11]
4. O=C1NCC(c2ccsc2)C1C(=O)Nc1ccccc1F (racemic) [Compound 29]
5. O=C1NCC(c2ccc(C(F)(F)F)cc2)C1C(=O)Nc1cccc(F)c1F (stereo not drawn) [Compound 80]

1: 90; 2: 0; 3: 70; 4: 30; 5: 90

Attribution: patent US10294202B2
